Values from patent US9938279B2

AMPK activation (% to control) Hep G2 overview
Tested on: AMPK
Assay: AMPK activation assay (western blot phospho-AMPK Thr172) in Hep G2
Assay type: cell-based, human
Settings: Hep G2 cells, 100 microM, 30 min treatment

Completed entries (count: 5):
In [3]: df
Out[3]:
                              compound        test_value
0                 Nc1nc(I)nc2nc[nH]c12  227 % to control
1                 Nc1nc(S)nc2nc[nH]c12  195 % to control
2                 Nc1nc(S)c2[nH]cnc2n1  209 % to control
3                    Cc1c[nH]c(=O)nc1N  218 % to control
4  Oc1ncnc2nc[nH]c12 [6-hydroxypurine]  165 % to control

// below: AMPK activation (% to control) Hep G2 requested for another compound
So what AMPK activation (% to control) Hep G2 did Sc1ncnc2nc[nH]c12 get with AMPK?
204 % to control

---

In this section, each of the molecules is paired with its reported AMPK activation (% to control) C2C12.
System: AMPK
Experiment: AMPK activation assay (western blot phospho-AMPK Thr172) in C2C12
Type: cell-based, mouse
Conditions: C2C12 cells, 200 microM, 30 min treatment

Some solved cases for reference:
>>> print(df.to_string())
                                   molecule        test_value
0  Cc1c[nH]c(=O)nc1N [Example 5-methylcytosine, 5-methylcytosine]  338 % to control
1  CC(C)CCNc1nc(N)nc2nc[nH]c12 [Example 2-amino-6-isopentylaminopurine, 2-amino-6-isopentylaminopurine]  305 % to control
2  Sc1nc(S)c2[nH]cnc2n1 [2,6-dimercaptopurine]  298 % to control
3  Nc1nc(NCc2ccccc2)nc2nc[nH]c12 [Example 2-benzylamino-6-aminopurine, 2-benzylamino-6-aminopurine]  312 % to control
4  Nc1nc(F)nc2nc[nH]c12 [Example 2-fluoroadenine, 2-fluoroadenine]  303 % to control

Consider the molecule Nc1cc[nH]c(=O)n1 [Cytosine] and give its measured AMPK activation (% to control) C2C12.
361 % to control

I am curious: what AMPK activation (% to control) C2C12 value has been reported for O=c1[nH]c(=O)n([C@H]2C[C@H](O)[C@@H](CO)O2)cc1F [Floxuridine] ?
312 % to control

Requested field: AMPK activation (% to control) C2C12. Item: Nc1nc(I)nc2nc[nH]c12 [Example 2-iodoadenine, 2-iodoadenine]
311 % to control

Query: AMPK activation (% to control) C2C12; subject: COc1cc(CNc2nc(C)nc3nc[nH]c23)cc(OC)c1OC
361 % to control

---

Entries and their AMPK activation (% to control) C2C12 values follow.
Test system: AMPK
Assay: AMPK activation assay (western blot phospho-AMPK Thr172) in C2C12
Format: cell-based, mouse
Conditions: C2C12 cells, 200 microM, 30 min treatment

Here are 4 compounds together with their reported answers.
>>> print(df.to_string())
                                   compound  target_entity        test_value
0  O=c1cn[nH]c(=O)[nH]1 [Example 6-azauracil, 6-azauracil]           AMPK  284 % to control
1  Oc1nc(NC2CCCCC2)nc2nc[nH]c12 [2-cyclohexylamino-6-hydroxypurine]           AMPK  321 % to control
2      O=c1[nH]cnc2nc[nH]c12 [Hypoxanthine]           AMPK  309 % to control
3        O=C1CCNC(=O)N1 [5,6-dihydrouracil]           AMPK  326 % to control

Which AMPK activation (% to control) C2C12 value belongs to COc1cccc(CNc2nc(N)nc3nc[nH]c23)c1OC ?
334 % to control

AMPK activation (% to control) C2C12 lookup needed for Nc1nc2[nH]cnc2c(=S)[nH]1 [Example 6-thioquanine] , thanks.
301 % to control

So what's the measured AMPK activation (% to control) C2C12 for this one? CN(C)c1nc(O)c2[nH]cnc2n1 [Example 2-Dimethylamino-6-hydroxypurine, 2-Dimethylamino-6-hydroxypurine]
298 % to control

I am curious: what AMPK activation (% to control) C2C12 value has been reported for CNc1nc(N)nc2nc[nH]c12 [Example 2-amino-6-methylaminopurine, 2-amino-6-methylaminopurine] ?
351 % to control

# AMPK activation (% to control) C2C12 lookup, item Oc1nc(S)nc2nc[nH]c12 [Example 2-mercapto-6-hydroxypurine, 2-mercapto-6-hydroxypurine]
333 % to control

For the compound c1nc(NC2CCCCC2)c2[nH]cnc2n1 [Example 6-cyclohexylaminopurine, 6-cyclohexylaminopurine] , what AMPK activation (% to control) C2C12 is on record?
322 % to control

Name the recorded AMPK activation (% to control) C2C12 for CNc1ncnc2nc[nH]c12 [Example 6-methylaminopurine, 6-methylaminopurine] .
328 % to control

Data request, read-out AMPK activation (% to control) C2C12, for Nc1nc(S)c2[nH]cnc2n1 [Example 2-amino-6-mercaptopurine, 2-amino-6-mercaptopurine]
284 % to control

Recorded AMPK activation (% to control) C2C12 for O=c1[nH]c(Br)nc2nc[nH]c12 [Example 2-bromohypoxanthine, 2-bromohypoxanthine] , please?
321 % to control

Would you mind telling me what AMPK activation (% to control) C2C12 value was observed for CNc1nc(O)nc2nc[nH]c12 [Example 2-hydroxy-6-methylaminopurine, 2-hydroxy-6-methylaminopurine] ?
361 % to control

Return reported AMPK activation (% to control) C2C12; argument: Nc1nc2nc[nH]c2c(=O)[nH]1 [Guanine]
304 % to control

Consider the compound shown here: Nc1nc(Cl)nc2nc[nH]c12 [Example 2-chloroadenine, 2-chloroadenine] What is its recorded AMPK activation (% to control) C2C12?
326 % to control

# AMPK activation (% to control) C2C12 lookup, item Oc1nc(O)c2[nH]cnc2n1 [2,6-dihydroxypurine]
347 % to control

Fill in: AMPK activation (% to control) C2C12 of Cc1ccc(CNc2ncnc3nc[nH]c23)cc1 [6-(4-methylbenzylamino)purine] is ___
358 % to control

---

Test system: AMPK
Experiment: AMPK activation assay (western blot phospho-AMPK Thr172) in 3T3-L1
Type: cell-based, mouse
Settings: 3T3-L1 cells, 1 microM, 30 min treatment
VALUE TYPE: AMPK activation (% to control) 3T3-L1

>>> df
                                   compound        test_value
0  Oc1nc(NCc2ccccc2)c2[nH]cnc2n1 [Example 2-hydroxy-6-benzylaminopurine, 2-hydroxy-6-benzylaminopurine]  115 % to control

State the recorded AMPK activation (% to control) 3T3-L1 for this entry: Nc1nc(O)nc2nc[nH]c12 [Example 2-hydroxyadenine, 2-hydroxyadenine]
117 % to control

For Clc1cccc(Nc2ncnc3nc[nH]c23)c1 , what is its reported AMPK activation (% to control) 3T3-L1?
116 % to control

Requested read-out: AMPK activation (% to control) 3T3-L1. Entry: Oc1nc(O)c2[nH]cnc2n1 [2,6-dihydroxypurine]
109 % to control

Requested read-out: AMPK activation (% to control) 3T3-L1. Entry: O=c1cc[nH]c(=O)[nH]1
114 % to control

---

Test system: AMPK
Experiment: AMPK activation assay (western blot phospho-AMPK Thr172) in 3T3-L1
Format: cell-based, mouse
Conditions: 3T3-L1 cells, 1 microM, 30 min treatment
Parameter: AMPK activation (% to control) 3T3-L1. Scope: all listed entries.

Observe how each entry below is paired with its result.
                                   molecule        test_value
0  CCCCCCNc1ncnc2nc[nH]c12 [Example 6-hexylaminopurine, 6-hexylaminopurine]  108 % to control
1   COc1cc(CNc2nc(C)nc3nc[nH]c23)cc(OC)c1OC  115 % to control
2       COc1cccc(CNc2nc(N)nc3nc[nH]c23)c1OC  118 % to control
3  Nc1nc2[nH]cnc2c(=S)[nH]1 [Example 6-thioquanine]  115 % to control

Query the reported AMPK activation (% to control) 3T3-L1 for AMPK; item: Nc1nc(Br)nc2nc[nH]c12 [Example 2-bromoadenine, 2-bromoadenine]
119 % to control

Record O=c1[nH]cnc2nc[nH]c12 [Hypoxanthine] : what is its AMPK activation (% to control) 3T3-L1 with AMPK?
108 % to control

Lab note: need AMPK activation (% to control) 3T3-L1 for CCCNc1nc(O)nc2nc[nH]c12 [Example 2-hydroxy-6-propylaminopurine, 2-hydroxy-6-propylaminopurine] on AMPK, anyone have it?
109 % to control

Param readout= AMPK activation (% to control) 3T3-L1; system= AMPK; entry= Nc1nc(F)nc2nc[nH]c12 [Example 2-fluoroadenine, 2-fluoroadenine] ; returns value.
114 % to control

Request - read-out AMPK activation (% to control) 3T3-L1 | tested on AMPK | molecule Oc1nc(NC2CCCCC2)nc2nc[nH]c12 [2-cyclohexylamino-6-hydroxypurine]
118 % to control
